measurement_protocol: Cytotoxicity against human MOLT-4 cells assessed as reduction in cell viability incubated for 24 hrs by CellTiter Glo Luminescent cell viability assay
Type: toxicity, cell-based
experimental_readout: CC50 at 24 h

{"molecule": "O=C1CCC(N2Cc3ccc(S(=O)(=O)n4ccnc4)cc3C2=O)C(=O)N1 (configuration not stated)", "CC50 at 24 h": "> 10 µM"}

Now look at this entry.
Fill in CC50 at 24 h for record O=C1CCC(N2Cc3ccccc3C2=O)C(=O)N1 (configuration not stated)
> 10 µM

====

measurement_protocol: Stability of the compound in human liver microsomes assessed as half life at 1 uM by LC-MS/MS analysis
Assay type: ADME, Microsome
Parameter half-life at 1 µM: see the listing below.

{"molecule": "O=C1CCC(N2Cc3ccc(S(=O)(=O)n4ccnc4)cc3C2=O)C(=O)N1 (configuration not stated)", "half-life at 1 µM": "> 2.42 h"}

Let us move to another entry and its half-life at 1 µM.
For the molecule O=C1CCC(N2Cc3ccccc3C2=O)C(=O)N1 (configuration not stated) , give its measured half-life at 1 µM value.
> 2.42 h

====

measurement_protocol: Stability of the compound in human plasma assessed as half life at 1 uM by LC-MS/MS analysis
Format: ADME, cell-free
Please enter condition met where half-life at 1 µM is greater than or equal to 0.3 h, and condition not met where it is lower.

Below are worked cases with known answers.
{"compound": "O=C1CCC(N2Cc3ccc(S(=O)(=O)n4ccnc4)cc3C2=O)C(=O)N1 (stereo not drawn)", "assigned_category": "condition met"}
{"compound": "O=C1CCC(N2Cc3ccc(S(=O)(=O)n4ccc(=O)[nH]c4=O)cc3C2=O)C(=O)N1 (stereo not drawn)", "assigned_category": "condition met"}
{"compound": "O=C1CCC(N2Cc3ccc(S(=O)(=O)n4cnc(F)c4)cc3C2=O)C(=O)N1 (stereo not drawn)", "assigned_category": "condition met"}
{"compound": "Nc1ccn(S(=O)(=O)c2ccc3c(c2)C(=O)N(C2CCC(=O)NC2=O)C3)c(=O)n1 (stereo not drawn)", "assigned_category": "condition met"}
{"compound": "O=C1CCC(N2Cc3ccc(S(=O)(=O)n4cc(F)cn4)cc3C2=O)C(=O)N1 (stereo not drawn)", "assigned_category": "condition met"}
{"compound": "Cc1cnn(S(=O)(=O)c2ccc3c(c2)C(=O)N(C2CCC(=O)NC2=O)C3)c1 (stereo not drawn)", "assigned_category": "condition met"}

From here, focus on the item given below.
Evaluate Cc1cn(S(=O)(=O)c2ccc3c(c2)C(=O)N(C2CCC(=O)NC2=O)C3)cn1 (stereo not drawn) : half-life at 1 µM at minimum 0.3 h?
condition met

====

target_of_assay: UniProtKB Q96SW2
Sequence (Q96SW2 whole entry, the tested form may be a part): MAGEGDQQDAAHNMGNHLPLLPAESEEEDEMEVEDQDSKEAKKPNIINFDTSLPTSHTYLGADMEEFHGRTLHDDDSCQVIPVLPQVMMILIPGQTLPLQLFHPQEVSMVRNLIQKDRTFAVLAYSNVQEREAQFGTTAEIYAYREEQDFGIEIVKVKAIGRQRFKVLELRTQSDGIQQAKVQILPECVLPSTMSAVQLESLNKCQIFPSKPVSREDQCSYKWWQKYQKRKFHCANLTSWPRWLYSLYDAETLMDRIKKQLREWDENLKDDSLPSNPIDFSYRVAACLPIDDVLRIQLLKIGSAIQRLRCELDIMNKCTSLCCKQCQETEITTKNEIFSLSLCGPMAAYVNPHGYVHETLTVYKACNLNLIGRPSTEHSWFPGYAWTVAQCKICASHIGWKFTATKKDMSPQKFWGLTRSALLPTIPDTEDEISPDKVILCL
measurement_protocol: Displacement of BODIPY-lenalidomide from human N-terminal NanoLuc-fused CRBN expressed in HEK293T cells incubated for 2 hrs by NanoBRET assay
experimental_readout: pIC50
In simple prose, pIC50 is minus the logarithm base ten of a concentration in moles per litre.

Please respond with reported pIC50 (system UniProtKB Q96SW2) for O=C1CCC(N2Cc3ccc(S(=O)(=O)F)cc3C2=O)C(=O)N1 (stereo unspecified) .
8.96

====

Collected half-life values appear next to each entry.
measurement_protocol: Stability of the compound in human hepatocytes assessed as half life at […] by LC-MS/MS analysis
Format: ADME, cell-based, Hepatocyte

{"molecule": "O=C1CCC(N2Cc3ccccc3C2=O)C(=O)N1 (configuration not stated)", "half-life": "> 3.62 h"}

Let's switch to this molecule now.
Write down half-life measured for item O=C1CCC(N2Cc3ccc(S(=O)(=O)n4ccnc4)cc3C2=O)C(=O)N1 (configuration not stated)
> 3.62 h

Values compiled from ChEMBL document CHEMBL5370678.
